Test system: CAKI-1
Test: NCI tumour cell line growth inhibition, 48 h
Activity calls are given as the source filed them. No stated cut-off is given here; in the data, active = GI50 up to about 1.1 µM and inactive = higher.
Possible outcomes: true (1) for active, false (0) for inactive

Compound | Class assignment
S=C(NN=C1NCCCCN1)Nc1ccc(Cl)cc1 | true (1)
O=C(O)CCNC(=O)c1cc(N(CCBr)CCBr)c([N+](=O)[O-])cc1[N+](=O)[O-] | false (0)
Nc1nc(Cl)cc(NCC2(CO)CCC(O)C2)n1 (stereo unspecified) | false (0)
Cc1ccc([S+](c2ccccc2)c2cc(C)ccc2C)cc1 (stereo unspecified) | false (0)
c1ccc2c(Cc3c[nH]c4ccccc34)c[nH]c2c1 | false (0)
c1ccc2c(c1)CCc1c(-c3n[nH]c4c3CCc3ccccc3-4)n[nH]c1-2 | false (0)
Cc1ccc(S(=O)(=O)N/N=C(\c2nc3ccc(Cl)cc3nc2O)C(O)c2cccc([N+](=O)[O-])c2)cc1 (stereo unspecified) | false (0)
COc1cc2c(cc1OC)-c1cc3cc(OC)c(OC)cc3n1CC2 | false (0)
Cc1ccc([Se][Se]c2ccc(C)cc2)cc1 | false (0)
COC(=N)C12C(N)=NC(OC)(OC)C1(C#N)C21C(=O)N(c2ccccc2)N=C1C (stereo unspecified) | false (0)
O=C(O)/C=c1/c2ccccc2n2nc3ccccc3c12 | false (0)

* * *

System: K562
Assay: NCI tumour cell line growth inhibition, 48 h
The source made the active and inactive calls. Cut-off read from the data, not from the text of the source: active = GI50 up to about 1.1 µM and inactive = higher.
Possible outcomes: y for active, n for inactive

Compound | Class assignment
O=C(/C=C/c1ccc[nH]1)c1ccccc1 | n
OC(CCN1CCN(CCOC(c2ccc(F)cc2)c2ccc(F)cc2)CC1)c1ccc(Br)cc1 (stereo not given) | n
C[C@H]1C=C2[C@@H]3CC(C)(C(=O)O)CC[C@]3(C)CC[C@]2(C)[C@]2(C)CC[C@H]3C(C)(C)[C@@H](OC(=O)c4cccc5c(=O)c6ccccc6[nH]c45)CC[C@]3(C)[C@@H]12 (stereo not given in full) | n
O[C@@H]1C[C@@H]2N[C@@](O)(C[C@@H]2O)[C@H]1O | n
COc1cccc2c1C(=O)C(=O)c1c-2oc(=O)c2cc(C)cc(OC)c12 | n
N#Cc1c(-c2ccc([N+](=O)[O-])cc2)cc(-c2ccc(Nc3ccnc4cc(C(F)(F)F)ccc34)cc2)nc1N | n
CN1C(=O)n2c(nc3ccccc32)C(N=[N+]=[N-])(N=[N+]=[N-])C1=O (stereo not given) | n
CCOc1ccccc1NC(=O)/C=C1\NC(=O)CS1 | n
Clc1ccc(C2=Nc3ccccc3SC(c3cccs3)C2)cc1 (stereo not given) | n
COC1/C=C\OC2(C)Oc3c(C)c(O)c4c(O)c(c(CN(C)C)c(O)c4c3C2=O)NC(=O)/C(C)=C\C=C/C(C)C(O)C(C)C(O)C(C)C(OC(C)=O)C1C (stereo not given) | n
COc1cc2c(cc1OC)C(Cl)C(c1ccc(Br)cc1)=C2Cl (stereo not given) | n
CC(C)C1N2CCCCC2[C@@H]2c3[nH]c4ccccc4c3CCN12 (stereo not given in full) | n
[O-][S+](Nc1ccccc1)c1ccc(Cl)cc1 (stereo not given) | n
Cn1c(CO)ccc1-c1ccc(-c2ccc[se]2)[se]1 | y
Oc1cc2cc(-c3ccccc3)[nH]c2c2ccccc12 | n
COc1ccc2c3c1OC1C(=O)C=CC4(O)C(C2)NCC[C@@]314 (stereo not given in full) | n
N#C/C(=C/N1C(=O)/C(=C/c2ccc([N+](=O)[O-])cc2)SC1=S)c1nc2ccccc2s1 | n
COc1cc(/C=N\c2ccc(C(C)C)cc2)cc(OC)c1OC | n
COC(=O)C12CCCN1CCC2 | n
COc1cc(-c2oc(/C=N/c3ccccc3)c([N+](=O)[O-])c2-c2ccc(O)c(OC)c2)ccc1O | n
